Target: baculovirus-expressed human trkA cytoplasmic domain (Homo sapiens, UniProt P04629)
Construct: baculovirus-expressed human trkA cytoplasmic domain; host or cells: baculovirus expression system
Sequence (P04629 440-796 limits assumed): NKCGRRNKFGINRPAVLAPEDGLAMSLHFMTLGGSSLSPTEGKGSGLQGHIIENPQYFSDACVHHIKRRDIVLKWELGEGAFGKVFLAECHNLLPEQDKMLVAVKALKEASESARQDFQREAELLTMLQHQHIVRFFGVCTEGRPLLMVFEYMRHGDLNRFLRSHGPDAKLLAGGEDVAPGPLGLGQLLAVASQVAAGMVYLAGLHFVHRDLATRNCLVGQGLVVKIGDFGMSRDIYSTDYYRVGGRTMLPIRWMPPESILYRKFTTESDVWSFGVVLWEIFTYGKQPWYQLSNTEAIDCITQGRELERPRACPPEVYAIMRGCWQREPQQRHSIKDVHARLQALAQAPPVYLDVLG
Experiment: trkA tyrosine kinase inhibition assay (ELISA-based)
Assay type: biochemical
Details: 1 uM compound; 40 μM ATP
Description: Inhibition of trkA Tyrosine Kinase Activity Selected heterocyclic substituted pyrazolones were tested for their ability to inhibit the kinase activity of baculovirus-expressed human trkA cytoplasmic domain using an ELISA-based assay as previously described (Angeles et al., Anal. Biochem. 236: 49-55, 1996). […] The activity of the bound enzyme was measured via an amplified detection system (Gibco-BRL). […]
test readout: trkA % inhibition @ 1 uM (%)
Write the value in % as a bare number.

Consider the following illustrative entries.
>  <molecule>
Cc1cc(C)c(C=C2C(=O)NN=C2c2cc(C)oc2C)[nH]1 [Compound 36]

>  <target or test system>
baculovirus-expressed human trkA cytoplasmic domain (Homo sapiens, UniProt P04629)

>  <units text>
%

>  <trkA % inhibition @ 1 uM>
40

$$$$
>  <molecule>
N#CCCn1cc(C=C2C(=O)NN=C2c2nccs2)c2ccccc21 [Compound 64]

>  <target or test system>
baculovirus-expressed human trkA cytoplasmic domain (Homo sapiens, UniProt P04629)

>  <units text>
%

>  <trkA % inhibition @ 1 uM>
10

$$$$
>  <molecule>
Cn1cc(C=C2C(=O)NN=C2c2ccoc2)c2ccccc21 [Compound 20]

>  <target or test system>
baculovirus-expressed human trkA cytoplasmic domain (Homo sapiens, UniProt P04629)

>  <units text>
%

>  <trkA % inhibition @ 1 uM>
60

$$$$

Give its trkA % inhibition @ 1 uM value. Item: O=C1NN=C(c2cc3ccccc3o2)C1=Cc1c[nH]c2ccccc12 [Compound 58] 30

Give its trkA % inhibition @ 1 uM value. Item: O=C1NN=C(c2ccco2)C1=Cc1c[nH]c2ccc(OCc3ccccc3)cc12 [Compound 43] 42

Give its trkA % inhibition @ 1 uM value. Item: Cc1cc(C)c(C=C2C(=O)NN=C2c2cccs2)[nH]1 [Compound 61] 35

Give its trkA % inhibition @ 1 uM value. Item: O=C1NN=C(c2ccoc2)C1=CC=C(c1ccccc1)c1ccccc1 [Compound 4] 53

Give its trkA % inhibition @ 1 uM value. Item: O=C1NN=C(c2ccoc2)C1=Cc1cn(Cc2ccccc2)c2ccccc12 [Compound 68] 42

Give its trkA % inhibition @ 1 uM value. Item: O=C1NN=C(c2ccoc2)C1=Cc1c[nH]c2ccc(OCc3ccccc3)cc12 [Compound 21] 56

* * *

biological target: recombinant human baculoviral VEGFR2 cyctoplasmic domain (Homo sapiens, UniProt P35968); construct: recombinant human baculoviral VEGFR2 cyctoplasmic domain; host or cells: baculovirus expression system; test: VEGFR2 kinase inhibition assay (ELISA-based, time-resolved fluorescence); assay type: biochemical; details: 1 uM compound; 30 μM ATP
Sequence (P35968 786-1356 limits assumed): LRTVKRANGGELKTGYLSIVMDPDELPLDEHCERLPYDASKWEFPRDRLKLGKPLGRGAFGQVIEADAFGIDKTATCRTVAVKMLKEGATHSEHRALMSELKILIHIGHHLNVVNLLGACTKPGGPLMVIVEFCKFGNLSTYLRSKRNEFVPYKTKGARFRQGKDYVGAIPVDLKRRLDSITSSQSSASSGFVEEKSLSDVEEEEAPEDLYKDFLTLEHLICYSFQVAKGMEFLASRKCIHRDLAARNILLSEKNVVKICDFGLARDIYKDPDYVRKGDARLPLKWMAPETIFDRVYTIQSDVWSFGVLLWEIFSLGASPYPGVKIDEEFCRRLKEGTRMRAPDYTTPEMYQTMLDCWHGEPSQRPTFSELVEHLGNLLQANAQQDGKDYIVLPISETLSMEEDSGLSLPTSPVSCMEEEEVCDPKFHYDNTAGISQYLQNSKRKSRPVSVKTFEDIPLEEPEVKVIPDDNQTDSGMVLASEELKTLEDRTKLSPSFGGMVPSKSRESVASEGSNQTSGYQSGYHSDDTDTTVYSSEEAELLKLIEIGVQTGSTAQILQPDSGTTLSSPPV
test readout: VEGFR-2 kinase % inhibition @ 1 uM (%)
Write the value in % as a bare number.

Consider the following illustrative entries.
>  <mol>
Cn1cc(C=C2C(=O)NN=C2c2ccoc2)c2ccccc21

>  <target or test system>
recombinant human baculoviral VEGFR2 cyctoplasmic domain (Homo sapiens, UniProt P35968)

>  <measured number>
67

$$$$
>  <mol>
Cn1cc(C=C2C(=O)NN=C2c2ccco2)c2ccccc21

>  <target or test system>
recombinant human baculoviral VEGFR2 cyctoplasmic domain (Homo sapiens, UniProt P35968)

>  <measured number>
72

$$$$
>  <mol>
N#CCCn1cc(C=C2C(=O)NN=C2c2cccs2)c2ccccc21

>  <target or test system>
recombinant human baculoviral VEGFR2 cyctoplasmic domain (Homo sapiens, UniProt P35968)

>  <measured number>
32

$$$$
>  <mol>
O=C1NN=C(c2ccco2)C1=Cc1c[nH]c2ccc(F)cc12

>  <target or test system>
recombinant human baculoviral VEGFR2 cyctoplasmic domain (Homo sapiens, UniProt P35968)

>  <measured number>
58

$$$$
>  <mol>
CC(C)Cn1cc(C=C2C(=O)NN=C2c2nccs2)c2ccccc21

>  <target or test system>
recombinant human baculoviral VEGFR2 cyctoplasmic domain (Homo sapiens, UniProt P35968)

>  <measured number>
15

$$$$

Give its VEGFR-2 kinase % inhibition @ 1 uM value. Item: `O=C1NN=C(c2ccco2)C1=Cc1c[nH]c2ccc(OCc3ccccc3)cc12` 25

Give its VEGFR-2 kinase % inhibition @ 1 uM value. Item: `COc1ccc2[nH]cc(C=C3C(=O)NN=C3c3ccco3)c2c1` 55

Give its VEGFR-2 kinase % inhibition @ 1 uM value. Item: `O=C1NN=C(c2ccco2)C1=Cc1c[nH]c2ccc(Cl)cc12` 50

Give its VEGFR-2 kinase % inhibition @ 1 uM value. Item: `Cc1cc(C)c(C=C2C(=O)NN=C2c2ccncc2)[nH]1` 39

Give its VEGFR-2 kinase % inhibition @ 1 uM value. Item: `Cc1cccc2c(C=C3C(=O)NN=C3c3ccoc3)c[nH]c12` 41

Give its VEGFR-2 kinase % inhibition @ 1 uM value. Item: `COC(=O)c1ccc2c(C=C3C(=O)NN=C3c3ccco3)c[nH]c2c1` 44

Give its VEGFR-2 kinase % inhibition @ 1 uM value. Item: `Cn1cc(C=C2C(=O)NN=C2c2cccs2)c2ccccc21` 75

Give its VEGFR-2 kinase % inhibition @ 1 uM value. Item: `O=C1NN=C(c2ccoc2)C1=Cc1cn(Cc2ccccc2)c2ccccc12` 26

Each recorded value in this set is attributed to patent US6831075B2.
